- testDetails: TLR3 IRF3 reporter activation blockers – cell-based, poly I:C stimulus, luciferase, 10K MLSCN set, primary screen (AID 602277)
- measurementConditions: HEK293-TLR3 RL24 IRF3 luciferase reporter, at 10 µM, active compounds read high
property: inhibition (%)
Please reply with the bare figure in % and do not write the unit itself.

Item under review: COc1cc(-n2nc(C)c3c2OC(N)=C(C#N)C3c2ccccc2)c(Cl)c(Br)c1O (stereo not given) . Reported inhibition?
14.7

Item under review: `Cc1cc(=O)oc2cc(OCC#N)ccc12` . Reported inhibition?
27.1

Item under review: CN1CCCN(CC(O)COCc2cccs2)CC1 (stereo not given) . Reported inhibition?
24.2

Item under review: `CCOC(=O)N1CCN(c2c(NCC3CCN(Cc4cccc(C)c4)CC3)c(=O)c2=O)CC1` . Reported inhibition?
23.9

Item under review: `O=C(COC(=O)CCC(=O)c1cccs1)NCc1ccco1` . Reported inhibition?
25.1

Item under review: COC(=O)c1ccccc1NC1c2ccccc2C(=O)N1c1cccnc1 (stereo not given) . Reported inhibition?
16.8

Item under review: `COc1cc(NC2=CC(=O)CC(C)(C)C2)cc(OC)c1` . Reported inhibition?
-12.1

Item under review: `CC(C)NC(=O)CSCc1ccccc1Cl` . Reported inhibition?
0.78

Item under review: `CCOC(=O)N1CCN(CC(=O)Nc2cc(C)nn2-c2nc3ccccc3s2)CC1` . Reported inhibition?
27.3

Item under review: `CCn1c(=O)c(C(=O)NCc2ccc(OC)cc2)c(O)c2ccccc21` . Reported inhibition?
16.2

// provenance: PubChem BioAssay
